- Assay Target: Tyrosine-protein kinase JAK3 (Homo sapiens)
- Sequence (whole entry): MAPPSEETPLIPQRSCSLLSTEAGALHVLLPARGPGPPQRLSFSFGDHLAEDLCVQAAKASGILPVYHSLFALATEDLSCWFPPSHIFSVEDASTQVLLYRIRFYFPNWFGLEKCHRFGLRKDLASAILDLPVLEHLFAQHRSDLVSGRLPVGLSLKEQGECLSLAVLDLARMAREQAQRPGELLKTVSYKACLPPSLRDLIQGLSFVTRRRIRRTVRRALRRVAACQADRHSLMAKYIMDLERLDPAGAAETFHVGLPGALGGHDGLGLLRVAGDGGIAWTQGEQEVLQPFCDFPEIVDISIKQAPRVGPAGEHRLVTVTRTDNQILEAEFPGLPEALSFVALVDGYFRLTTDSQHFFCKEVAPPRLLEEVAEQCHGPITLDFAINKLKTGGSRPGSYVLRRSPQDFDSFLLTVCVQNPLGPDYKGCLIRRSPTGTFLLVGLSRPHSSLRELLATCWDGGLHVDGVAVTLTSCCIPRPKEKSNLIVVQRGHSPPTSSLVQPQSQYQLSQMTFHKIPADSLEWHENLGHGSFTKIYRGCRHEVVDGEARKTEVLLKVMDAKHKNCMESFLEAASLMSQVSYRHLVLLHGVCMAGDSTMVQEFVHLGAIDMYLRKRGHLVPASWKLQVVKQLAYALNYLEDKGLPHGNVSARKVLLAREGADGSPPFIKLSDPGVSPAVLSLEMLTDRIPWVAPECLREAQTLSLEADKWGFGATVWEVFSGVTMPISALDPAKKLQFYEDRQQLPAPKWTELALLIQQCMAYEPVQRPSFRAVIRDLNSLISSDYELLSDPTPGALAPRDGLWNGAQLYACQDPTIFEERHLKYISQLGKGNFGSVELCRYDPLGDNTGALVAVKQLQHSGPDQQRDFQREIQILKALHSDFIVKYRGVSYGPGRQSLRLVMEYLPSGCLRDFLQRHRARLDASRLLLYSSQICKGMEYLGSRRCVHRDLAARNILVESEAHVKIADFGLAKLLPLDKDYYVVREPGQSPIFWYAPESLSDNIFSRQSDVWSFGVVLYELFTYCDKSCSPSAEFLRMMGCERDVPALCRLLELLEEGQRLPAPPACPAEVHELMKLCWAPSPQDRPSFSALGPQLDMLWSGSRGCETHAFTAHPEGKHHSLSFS
- Settings: at 1 µM
- Description: GSK_PKIS: JAK3 mean inhibition at 1 uM [Nanosyn]
The entries below are paired with their reported inhibition.
The response must be a number in % with no trailing unit.

The cases that follow already have their inhibition on record.
| Smiles Repr | inhibition / % |
| --- | --- |
| Fc1ccc(-c2nn3ncccc3c2-c2ccnc(Nc3ccc4c(c3)OCCO4)n2)cc1 | -1.41 |
| COC(=O)Nc1nc2ccc(S(=O)(=O)c3ccc(NC(=O)Nc4cc(C(F)(F)F)ccc4F)cc3)cc2[nH]1 | 0.84 |
| COc1ccc(-c2nn3ncccc3c2-c2ccnc(Nc3ccc4c(c3)OCCO4)n2)cc1 | -0.04 |
| NS(=O)(=O)c1ccc(N/N=C2\C(=O)Nc3ccc4ncccc4c32)cc1 | 67.7 |

Lab note: next compound to report on.
Measured inhibition of CCCN1CCC(c2ccc(Nc3nc(Nc4cc(F)ccc4C(N)=O)c4cc[nH]c4n3)c(OC)c2)CC1 : 0.07

---

- Assay Target: Serine/threonine-protein kinase B-raf (Homo sapiens);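 note: mean percent inhibition of BRAF kinase activity, from the GSK PKIS kinase inhibitor screening set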
- Settings: at 0.1 µM
Entries and their inhibition

| Smiles Repr | Assay Target | Result |
| --- | --- | --- |
| Cc1cccc2c1NC(=O)/C2=N\Nc1ccc(S(N)(=O)=O)cc1 | Serine/threonine-protein kinase B-raf (Homo sapiens) | 3.47% |
| CCOc1ccc2c(-c3ccnc(Nc4cccc(C(F)(F)F)c4)n3)cnn2n1 | Serine/threonine-protein kinase B-raf (Homo sapiens) | 3.46% |

Turning to the following molecule.
inhibition for Serine/threonine-protein kinase B-raf (Homo sapiens) with input Fc1ccc(-c2nn3ncccc3c2-c2ccnc(Nc3ccc4c(c3)OCCO4)n2)cc1 equals 11.6%
